System: SNB-75 CNS
Assay: NCI tumour cell line growth inhibition, 48 h
Entry flag: Condition met if TGI reaches 30 µM; Condition not met if it does not.

Some solved entries appear below for comparison.
> print(dat)
                               compound   answer.label
1   Oc1ccc([Te]CCNCC[Te]c2ccc(O)cc2)cc1  Condition met
2     O=C(Cn1cc(-c2ccccc2)nn1)NC1CCCCC1  Condition met
3  CCN(CC)CCC(=O)c1ccc(Sc2ccc(F)cc2)cc1  Condition met

Given O=C(C=C1SCCS1)/C=C\c1ccc(Cl)cc1 , state whether its TGI is at least 30 µM. Condition met

Given CCN(CC)C(=O)Cn1c(-c2ccccc2)cc2ccccc21 , state whether its TGI is at least 30 µM. Condition met

Given COc1cccc(CCC2CCCN(c3cc(C)nc(N)n3)C2)c1 (stereo not given) , state whether its TGI is at least 30 µM. Condition not met

###

Give measured TGI for each item. Keep answers brief.
System: IGROV1 ovarian
Assay: NCI tumour cell line growth inhibition, 48 h

> print(dat)
                                   molecule  metric       val
1  COc1cc2nccc(Oc3ccc(NC(=O)NC4CC4)c(Cl)c3)c2cc1C(N)=O     TGI  > 100 µM
2  Cc1nc2c(c(=O)[nH]1)S/C(=C(/C#N)c1nc3ccccc3[nH]1)N2c1ccccc1     TGI  > 100 µM
3  CCCC(=O)NC(Nc1cc(C)ccn1)(C(=O)OCC)C(F)(F)F (stereo not drawn)     TGI  > 100 µM
4  NC1=NC2=c3ccccc3=C(c3cnccn3)C2(c2cnccn2)c2ccccc21 (stereo not drawn)     TGI  > 100 µM
5  Cc1cc(Nc2ccc(OCc3ccccc3)cc2)nc2cc(O)ccc12     TGI   26.3 µM
6  CCOP(=O)(OCC)C(C)(C)N(C)/C(F)=N/C(F)(F)F     TGI  > 100 µM

Go through the list and state TGI for each entry.
1. O=[N+]([O-])c1ccc(C2CC(c3ccccc3Cl)=Nc3ccccc3S2)cc1 (stereo not drawn)
2. COC(=O)CCC(NC(=S)N/N=C/c1ccccn1)C(=O)OC (stereo not drawn)
3. CC(C)(C)N1CCC1CN (stereo not drawn)
4. CCN(CC)CC(C)(C)C(=O)/C=C/c1cccc(/C=C/C(=O)C(C)(C)CN(CC)CC)c1
5. Cn1c2ccccc2n2c3ncccc3c(=NCCCC(=O)O)c(C#N)c12

1. 29.6 µM
2. > 100 µM
3. > 100 µM
4. 2.23 µM
5. > 100 µM

Go through the list and state TGI for each entry.
1. Cc1c(C)c(C)c(CC2(C)CSC2)c(CC2(C)CSC2)c1C
2. N#CC(N)c1ccc(OCCCCCCCCCCOc2ccc(C(N)C#N)cc2)cc1 (stereo not drawn)

> 100 µM
> 100 µM

###

Tested on: SN12C renal
Assay: NCI tumour cell line growth inhibition, 48 h
Give measured TGI for each item. Keep answers brief.

> print(dat)
                                   molecule       val
1  C=C(C)[C@@H]1CC[C@]2(COCCC#N)CC[C@]3(C)[C@H](CC[C@@H]4[C@@](C)(CCCNCCC#N)[C@H](C(=C)C)CC[C@]43C)[C@@H]12   29.2 µM
2  COc1cc(C2S/C(=C/c3ccccc3)C(=O)N2c2ccc(NC(C)=O)cc2)cc(OC)c1OC (stereo unspecified)   60.3 µM
3       O=C(O)/C=C/C(=O)N1Cc2cc3ccccc3nc2C1  > 100 µM
4  COC(=O)C1=Cc2cc(OC)c(OC)c(OC)c2[C@H](c2cc(OC)c(OC)c(OC)c2)C1C(=O)OC (stereo partly specified)  > 100 µM
5  C=C(C)C(=O)O[C@H]1CC2=C[C@@H](C[C@@]3(C)O[C@@H]3[C@H]3OC(=O)C(=C)[C@@H]31)OC2=O   8.02 µM

Go through the list and state TGI for each entry.
1. Cc1sc2[nH]c(=O)oc(=O)c2c1C
2. CCOC(=O)c1ccccc1OC(=O)NNc1ccccc1

["> 100 µM", "> 100 µM"]

Go through the list and state TGI for each entry.
1. Cc1ccc(S(=O)(=O)CN2C(=O)C(c3ccccc3)(c3ccccc3)C23OC(c2ccc(Cl)cc2)=CC3=O)cc1 (stereo unspecified)
2. COc1ccc(/C=C(/C(=O)N2CCN(c3ccccc3)CC2)c2cc(OC)c(OC)c(OC)c2)cc1N
3. COC1C(CO)OC(n2c3ccccc3c3c4c(c5c6ccccc6[nH]c5c32)C(=O)NC4=O)C(O)C1O (stereo unspecified)
4. O=C(NC(Cl)(C(F)(F)F)C(F)(F)F)c1ccc(F)cc1

1. > 10 µM
2. > 100 µM
3. 0.111 µM
4. > 100 µM

###

System: UACC-62 melanoma
Assay: NCI tumour cell line growth inhibition, 48 h; in the data active = GI50 below about 0.43 µM; inactive = the rest
Log the outcome using a class from active, inactive

> print(dat)
                            structure      assay.system  answer.label
1  N#Cc1c(NC(=O)NCc2ccccc2)sc2c1CCCC2  UACC-62 melanoma      inactive

Test call for this molecule, please: CCOC(=O)c1ccccc1OC(=O)NNc1ccccc1 active

Test call for this molecule, please: Cc1ccc(NC(=O)c2ccc(CN3CCN(C)CC3)cc2)cc1Nc1nccc(-c2cccnc2)n1 inactive

Test call for this molecule, please: COc1cc(/C=C2\C[C@H]3[C@@H]4CC=C5C[C@@H](O)CC[C@]5(C)[C@H]4CC[C@]3(C)[C@H]2O)ccc1OCCN1CCCC1 inactive

###

Test system: A549 NSCLC
Assay: NCI tumour cell line growth inhibition, 48 h
Give measured GI50 for each item. Keep answers brief.

Before answering, review these 2 worked examples.
compound	GI50
CCOC(=O)c1ccc(Nc2sc(C(=O)c3ccc(Br)cc3)c(N)c2C#N)cc1	1060 nM
COC(=O)[C@@H](C)C[C@H](Cc1cn(C)c2ccccc12)NC(=O)c1csc([C@@H](C[C@H](C(C)C)N(C)C(=O)[C@@H](NC(=O)[C@H]2CCCCN2C)C(C)C)OC(C)=O)n1	33.8 nM

Go through the list and state GI50 for each entry.
1. CCOC(=O)C1=C(C)N=c2s/c(=C\c3ccccc3O)c(=O)n2C1c1ccc(OC)c2ccccc12 (stereo unspecified)
2. C=CCC(N[C@@H](CO)c1ccccc1)c1cn(Cc2ccccc2Cl)c(=O)n(Cc2ccccc2Cl)c1=O (stereo partly specified)

1: 3880 nM; 2: > 100000 nM

Go through the list and state GI50 for each entry.
1. COc1ccc(N=Cc2c(O)ccc3c2oc2cc(Cl)c(O)c(Cl)c23)cc1
2. CCOC(=O)[C@@H](C)C[C@H](Cc1ccccc1)NC(=O)c1nc([C@@H](C[C@H](C(C)C)N(C)C(=O)[C@@H](NC(=O)[C@H]2CCCCN2C)C(C)C)OC(C)=O)sc1CCOCc1ccccc1

1: 14500 nM; 2: 101 nM

###

Test system: OVCAR-3 ovarian
Assay: NCI tumour cell line growth inhibition, 48 h
Give measured TGI for each item. Keep answers brief.

Before answering, review these 5 worked examples.
compound	TGI
COC(=O)c1c(C)cccc1C1CN=NC12Cc1ccccc1C2=O (stereo unspecified)	> 100 µM
Cc1cc(O)c2c(c1O)C(=O)c1cccc(O)c1C2=O	> 100 µM
CN(C)CCNc1nc2ccccc2c2c1CCCC2	> 100 µM
CC[C@@H]1[C@@H](C)O[C@@](O)([C@@H](C)[C@H](O)[C@H](C)[C@H]2OC(=O)/C=C/C=C/[C@H](C)[C@@H]([C@@H](C)[C@@H](O)[C@H](C)[C@@]3(O)C[C@@H](O[C@H]4C[C@@H](O)[C@H](O)C(C)O4)[C@H](CC)[C@@H](C)O3)OC(=O)/C=C/C=C/[C@@H]2C)C[C@H]1O[C@@H]1C[C@@H](O)[C@H](O)C(C)O1 (stereo partly specified)	0.219 µM
C=C(C)C1CC/C(C)=C/CCC2(C)OC2CC/C(CO)=C\C1O (stereo unspecified)	> 100 µM

Go through the list and state TGI for each entry.
1. CCOC(=O)C1=C(C)N=c2s/c(=C\c3ccccc3O)c(=O)n2C1c1ccc(OC)c2ccccc12 (stereo unspecified)
2. NC(CSCc1ccc(I)cc1)C(=O)O (stereo unspecified)
3. Cc1cccc(-c2[nH]ncc2-c2ccc3ncccc3n2)n1

1: 7.83 µM; 2: > 100 µM; 3: > 25 µM

###

Give measured TGI for each item. Keep answers brief.
System: SF-539 CNS
Test: NCI tumour cell line growth inhibition, 48 h

Before answering, review these 2 worked examples.
> print(dat)
                                  structure  metric       val
1         O=C(Cn1cc(-c2ccccc2)nn1)NC1CCCCC1     TGI  > 100 µM
2  O=C(NC(Cl)(C(F)(F)F)C(F)(F)F)c1ccc(F)cc1     TGI  > 100 µM

Kindly consider the entry below.
Kindly indicate its recorded TGI. Item: C=CCNC(=S)N=Nc1c(O)n(CN2CCOCC2)c2ccc([N+](=O)[O-])cc12 > 100 µM
